Values from PubChem BioAssay AID624444

test system: 26S proteasome chymotrypsin-like activity (human); test: proteasome chymotrypsin-like activity inhibition in cells, dose response, mechanism study for HSF1 activator project, U2OS cells, luminescence, dry powder (AID 624444); conditions: Proteasome-Glo chymotrypsin luminescence, at 38 µM (top of the series)
Active and inactive are the calls of the source.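 How the source made its calls: active means fitted curve reaches 35% signal loss at a dose no higher than twice the top tested dose; inconclusive means flat fit with 30 to 70% loss, or poor fit; inactive means the rest.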
value type: activity change, negative = inhibition

// solved cases for activity change, negative = inhibition follow
Nc1nc(SCc2ccc(F)cc2)ns1    -32% (inactive)
Cc1cccc(CSc2nsc(N)n2)c1    3.69% (inactive)

Return reported activity change, negative = inhibition; argument: Cc1ccccc1CSc1n[nH]c(N)n1 19.2% (inactive)

====

test system: 26S proteasome chymotrypsin-like activity (human); assay: proteasome chymotrypsin-like activity inhibition in cells, dose response, mechanism study for HSF1 activator project, U2OS cells, luminescence, dry powder (AID 624444); conditions: Proteasome-Glo chymotrypsin luminescence, at 38 µM (top of the series)
Calls of active or inactive are those of the source.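 How the source made its calls: active means fitted curve reaches 35% signal loss at a dose no higher than twice the top tested dose; inconclusive means flat fit with 30 to 70% loss, or poor fit; inactive means the rest.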
# activity change, negative = inhibition annotations

// solved cases for activity change, negative = inhibition follow
O=C(Nc1nc(SCc2ccccc2)ns1)C1CC=CCC1 (centres undefined)    -29.4% (inactive)
O=C(Nc1ccccc1)Nc1nc(SCc2ccccc2)ns1    -37.2% (inactive)
Nc1nc(SCc2ccccc2)ns1    -11% (inactive)

Return reported activity change, negative = inhibition; argument: Cc1ccccc1CSc1nsc(N)n1 -3.56% (inactive)
